The values you see were collected from PubChem BioAssay (NCI).

# TGI per entry
Test system: OVCAR-3 ovarian
Test: NCI tumour cell line growth inhibition, 48 h

Examples from the recorded data:
>>> endpoint_value("C/C(=N\\NS(=O)(=O)c1ccc(C)cc1)C(CN1CCOCC1)C(c1ccccc1)c1c(O)c2ccccc2oc1=O (stereo not drawn)")
"> 100 µM"
>>> endpoint_value("CC(C)/C(Cl)=N\\OC(=O)Nc1cccc(F)c1")
"32.4 µM"
>>> endpoint_value("O=C1/C(=C/c2cccnc2)C(n2cccc2)c2c(Br)sc(Br)c21 (stereo not drawn)")
"3.31 µM"
>>> endpoint_value("CN(C)c1ccc(N2Cc3ccccc3OC3=C2C(=O)c2c(O)ccc(O)c2C3=O)cn1")
"0.695 µM"

// switching to the query compound
*Q* Consider the compound `CSC1=C(C(=O)Nc2ccc(Cl)cc2)C(N)=NC1=O` and give its measured TGI.
*A* > 100 µM

###

The following compounds are listed with their measured TGI values.
Test system: NCI-H460 lung
Assay: NCI tumour cell line growth inhibition, 48 h
Your answer is read as µM, so omit the unit and give the number.

>>> endpoint_value("CN(C)c1ccc(N2Cc3ccccc3OC3=C2C(=O)c2c(O)ccc(O)c2C3=O)cn1")
3.67
>>> endpoint_value("CC[C@H](C)[C@H]1NC(=O)[C@@H](N[C@](C)(O)[C@@H](N)CC(C)C)[C@@H](C)OC(=O)[C@H](Cc2ccc(OC)cc2)N(C)C(=O)[C@@H]2CCCN2C(=O)[C@H](CC(C)C)NC(=O)[C@@H](C)C(=O)[C@H](C(C)C)OC(=O)C[C@@H]1O")
0.572

Let us move to another entry and its TGI.
*Q* Find the recorded TGI belonging to COC1=C2CC(C)CC(OC)[C@@H](OC(=O)CCN)[C@H](C)/C=C(\C)C(OC(N)=O)C(OC)/C=C\C=C(/C)C(=O)NC(=CC1=O)C2=O (stereo not given in full) and report it.
*A* 24.4

###

System: NCI/ADR-RES ovarian
Assay: NCI tumour cell line growth inhibition, 48 h
experimental endpoint: TGI

>>> endpoint_value("CC1=NN(C(=O)CC(=O)Nc2ccccc2C)C(=O)C1N=Nc1ccc(C(=O)O)cc1 (stereo not drawn)")
"> 100 µM"
>>> endpoint_value("COc1ccccc1C1SCC(=O)N1c1ccc(-n2c(-c3ccccc3)nc3ccccc3c2=O)cc1 (stereo not drawn)")
"> 100 µM"

Now for the compound whose TGI we want.
*Q* Consider the compound `Cc1ccc(CC(=O)Nc2ccc(NC(=O)/C=C/NC(=O)/C=C/c3ccc(-c4ccccc4)cc3)cc2C(=O)c2ccccc2)cc1` and give its measured TGI.
*A* > 100 µM

###

Listed here are molecules together with their documented TGI.
Test system: OVCAR-4 ovarian
Assay: NCI tumour cell line growth inhibition, 48 h

Solved entries:
>>> endpoint_value("CCCCON1C[C@@H](O)C(O)[C@@H](O)C1 (some centres not stated)")
"> 100 µM"
>>> endpoint_value("CCC[CH2][Sn]1([CH2]CCC)[O]C(=O)c2cc(I)cc(I)c2[O]1")
"2.83 µM"
>>> endpoint_value("COc1cc(NS(C)(=O)=O)ccc1Nc1c2ccc(Cl)cc2nc2c(OC)cccc12")
"16.7 µM"
>>> endpoint_value("COC(=O)CCCN(C)c1n[nH]c(N)n1")
"> 100 µM"
>>> endpoint_value("COc1ccc2cc(C(C)C(O)c3cc(F)c(F)c(F)c3F)ccc2c1 (configuration not stated)")
"> 100 µM"

*Q* I'd like to know its TGI. The molecule in question is `COC(=O)[C@@H]1CN(C(=O)c2ccccc2)C(=O)N1`
*A* > 100 µM

*Q* Repeat with `CCOC(=O)/C(=C\c1ccc(O)c(OC)c1)C(=O)c1ccccc1`
*A* > 40.3 µM
